- System: MS2 coat protein
- assay.details: apparent KD of MS2 coat protein, switch ON state; designed switch direction (-1 OFF switch, 1 ON switch): -1; higher = weaker reporter binding
- conditions.used: FMN input: 0 or 200 uM; Eterna round: R93 (includes R88 designs)
recorded.metric: apparent KD of MS2 coat protein (nM)
Just the number please, in nM, no unit attached.

primary.sequence: AGUCGGCGAGGAUAUACAUGAGGAUCACCCAUGUGAGAGAAAAAGGUGAGUCAGAAAAGUAGAAGGCGCUGACA [JL Lego Mod 5]
result.unit: nM
apparent KD of MS2 coat protein: 166
//
primary.sequence: GAAAAGUCAGGAUAUGUGGAAAAAAUAAAAAAAAUAAAAACACAGAAGGGACAUGAGGAUCACCCAUGUUAAAA [Mat - Exclusion 4 - Mayanna - D137]
result.unit: nM
apparent KD of MS2 coat protein: 52.4
//
primary.sequence: AAACCACAUGAGGAUCACCCAUGUGAGGAUAUGAACGAAAAUAAAUAAAAAUAAAAGUUCAGAAGGCACAAAAA [66%, Wbt, 12]
result.unit: nM
apparent KD of MS2 coat protein: 21.3

Exercise: Sample AGCUAGUCAGGAUAUACGAACAAGACAAAAGACGUGAAGGGACAUGAGGAUCACCCAUGUAGAAGGGACUAGCA [74%, Web mod - With 2 less U's] — what was its apparent KD of MS2 coat protein?
Solution: 26.2

Exercise: Sample AACAAACAUGAGGAUCACCCAUGUAAGGAUAUGCGACAAAAACAAAAAACAAAAAAAAGCAGAAGGUACAACAA [Amethyst 100] — what was its apparent KD of MS2 coat protein?
Solution: 23.4

Exercise: Sample AGAUAGUCAGGAUAUACGAACAAGAAAAAAGACGAGAACGGACAUGAGGAUCACCCAUGUAGAAGGGACAAGAA [Diamond 12] — what was its apparent KD of MS2 coat protein?
Solution: 63

====

- System: MS2 coat protein
- assay.details: apparent KD of MS2 coat protein; designed switch direction (-1 OFF switch, 1 ON switch): -1; higher = weaker reporter binding
- conditions.used: input ligand: none
Some sequences, each annotated with its measured apparent KD of MS2 coat protein.
Just the number please, in nM, no unit attached.

# example entries with known answers
primary.sequence: UACACUGCAUGAGGAUCAAACAUGAGGAUCACCCAUGUAUAGCAAGCUUUUUGCACGUCUUAUAAUUAUGUAGUGUA [Electric Eye 13 - Jieux - Sensor, turn-off variant 1] (Eterna round: R97, puzzle: Sensor, turn-off variant 1)
experimental.system: MS2 coat protein
apparent KD of MS2 coat protein / nM: 16.2
//
primary.sequence: AGUGGGCGCGUAGGAUAUGAGGAUCACCCAUAGAAGGAUAUCGAAAGAGAAGGUCUGAGGAUUACCCAGAAGGACGGGUUUGUA [pwkr exNG2 2xF5 2xFMN.15] (Eterna round: R96, puzzle: Exclusion NG 2)
experimental.system: MS2 coat protein
apparent KD of MS2 coat protein / nM: 232
//
primary.sequence: CCUAGUUGGUAAGGAUAUCCUACACUGUUCUGACCCGGGCAAGCUACAUGAGGAUCACCCAUGUGGGAGAAGGUGCGUCAACGC [Design 13] (Eterna round: R96, puzzle: Exclusion NG 2)
experimental.system: MS2 coat protein
apparent KD of MS2 coat protein / nM: 31.2
//
primary.sequence: GGACAUAAAGUCAGGAUAUUAAGGCGAACAAGCGAUGAGAAGGGACAUGAGGAUCACCCAUGUGAUUCGCAUCA [Raerce] (Eterna round: R97, puzzle: Brourd's mod of Exclusion 4)
experimental.system: MS2 coat protein
apparent KD of MS2 coat protein / nM: 24.1
//
primary.sequence: CAGGGCAUGCGAGGAUAUAGCAACAUGAGGAUCACCCAUGUAUAAGGGUGUCCAAGGCAUGCGCGCUAGAAGGCGCUGGUUCUC [Gemadi] (Eterna round: R96, puzzle: Exclusion NG 2)
experimental.system: MS2 coat protein
apparent KD of MS2 coat protein / nM: 116

Exercise: Sample ACAUGUCAUUGAGGAUAUCGCACACAUGAGGAUCACCCAUGUAAACAGAUGCUCAUAAGUGGGUUCGAGAAGGCGAUGUACAUU [Ex NG2 #100] (Eterna round: R96, puzzle: Exclusion NG 2) — what was its apparent KD of MS2 coat protein?
Solution: 117

Exercise: Sample AAUAACAAGCUGAUCCUCCACAUGAGGAUCACCCAUGUGUUCGUCUUGUAAAGUACUAUCACGAAAGUGAUAGUACA (Eterna round: R97, puzzle: Sensor, turn-off variant 1) — what was its apparent KD of MS2 coat protein?
Solution: 1630

Exercise: Sample AAUUAAGCAAGCAGAUCCCACAUGAGGAUCACCCAUGUGCUCGUCUUAUAAGGUACUGUGACGAUAGUCACGGUACC [Mat - Sensor, turn-off var - Eli Mod - D71] (Eterna round: R97, puzzle: Sensor, turn-off variant 1) — what was its apparent KD of MS2 coat protein?
Solution: 140

Exercise: Sample UUGUUACAUGAGGAUCACCCAUGUGAGGAUAUGGUUCAGUACUGUCAUGUCACGUACUCCAGAAGGCACAUGUU [1st #31] (Eterna round: R97, puzzle: Exclusion 1) — what was its apparent KD of MS2 coat protein?
Solution: 120

====

- Test system: MS2 coat protein
- assay.details: apparent KD of MS2 coat protein; higher = weaker reporter binding
- conditions.used: Eterna round: R107; input ligand: arginine 13.2 mM
recorded.metric: apparent KD of MS2 coat protein (nM)
Just the number please, in nM, no unit attached.

primary.sequence: AGUCUCAGUGGAAGGAGCGUCGCGACUGCUACAUGAGGAUCACCCAUGUCGCCUUGAGCGCGACAGGUAGGUCGCCACGGUAGGC [Erraraorle]
result.unit: nM
apparent KD of MS2 coat protein: 14.1
//
primary.sequence: ACAUGAGGAUCACCCAUGUUCCUCGCCGAUACCAGUGAAGAAGAACGCCCUUGGCAGCGGAAAGAAUAUUUUGGAGAUGAGAUAU [6.V]
result.unit: nM
apparent KD of MS2 coat protein: 70.5
//
primary.sequence: GGAGUAGGAAACUAUUCCAAUCCUCGUGAACGAGGACCGGUACGGCCGCCACUCGAUAAUUAAUAACAUGAGGAUCACCCAUGUA [Ex Tryptophan A 21]
result.unit: nM
apparent KD of MS2 coat protein: 36.6
//
primary.sequence: GCUGCCAUACGAAGGAGCGCUGGUGUAAUGAGGCGAACAUGAGGAUCACCCAUGUGGCAGAAGCAGGUAGGUCGCGUAUGGCAGC [EAB #15]
result.unit: nM
apparent KD of MS2 coat protein: 12.9
//
primary.sequence: UAUUUGGUGCGCGAGCGCUGGAUAAUUGAUACCAGUGAAGAAGAGCGCCCUUGGCAGCGAAUCCUAACAUGAGGAUCACCCAUGU [5.R]
result.unit: nM
apparent KD of MS2 coat protein: 33.1

Exercise: Sample AUACAUGAGGAUCACCCAUGUAUAGUUGAAGGAGCGACCAGAGGGUCAGGUAGGUCGCAGCGCAUGAGGUAAGCCCAUGUAUGCU [#1 Exclusion - Arginine A Attempt #16 (Inspired by Pi)] — what was its apparent KD of MS2 coat protein?
Solution: 22.7

====

- Tested on: K4 kissing-loop RNA reporter;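 note: bound reporter read as fluorescence of individual clusters on recovered sequencing chips by microscopy, with normalized cluster intensities fitted with a binding model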
- assay.details: apparent KD of K4 kissing-loop reporter; higher = weaker reporter binding
- conditions.used: Eterna round: R107; input ligand: FMN 200 uM
Some sequences, each annotated with its measured apparent KD of K4 kissing-loop reporter.
Just the number please, in nM, no unit attached.

Exercise: Sample CUGACGAUGACACGGUGGCCGCUGGUCGUGCGAGGACCGGUACGGCCGCCACUCGCAUGAGUGAUGUUCAUGUGUCGUCGUCGUC [#08 K4 Tryptophan A Exclusion] — what was its apparent KD of K4 kissing-loop reporter?
Solution: 133

Exercise: Sample GUCUGCGUCUCGGCCGCCACUCACUAGUGAUGUUAGUAAGGAGCGACUAGAGAAGUCCAGUUAAUGAGGACCGGGAGAAGCUCUU [Exclusion Tryptophan B GF 3] — what was its apparent KD of K4 kissing-loop reporter?
Solution: 122

Exercise: Sample CUCGAGUGAUGUUCGAUUAUUUAUACAGAUACCAGUGAAUUUUAACACCCUUGGCAGCUGGUAGUAUCGUUGUAAUUUACACAAG [JR_ExcTheophyA_Sub004] — what was its apparent KD of K4 kissing-loop reporter?
Solution: 99.8

Exercise: Sample AAAGUUGAUGAGUUGGGUAUGUGUUCCGAAGGAGCGAGAAUUAUCUCAGGUAGGUCGCGGAAGAUGAGUGAUGUUCAUCUAUAAA [KL-XArg-A8 #analogue] — what was its apparent KD of K4 kissing-loop reporter?
Solution: 147

Exercise: Sample UUUGUAGUGGGAGGAUAUCCUAAUAUGGGUGAUGUUAGCGAUGUUGAAGGUGUAGUGAUGUUAUGCGGAGAAGGCCCACUGUAGA [BDazzled - #20 - Exc. FMN B] — what was its apparent KD of K4 kissing-loop reporter?
Solution: 543

Exercise: Sample UGCGCUGUGUCCUAAAAUGUCCUCCGGGAUACCAGAGUCUUUUUAUUCCCUUGGCAGCUUGAGUGAUGUUUGAUGCCGUUCUUGU [xxbxymullin] — what was its apparent KD of K4 kissing-loop reporter?
Solution: 811
